Assay: Cocrystal screening by heat melting 1-menthol (Example 1), powder X-ray diffraction and thermal analysis
Assay type: physicochemical
Parameters: key: A cocrystal was completely formed.; B: A mixture of a cocrystal and the host compound or guest compound was formed.; C: A cocrystal was not formed (a mixture of the host compound and the guest compound was formed)
Conditions: host theophylline, equimolar guest, 1-menthol added, 4 hours at 80° C.
measurement-name: Cocrystal formation, Example 1

- NC(=O)c1cccnc1 [Nicotinamide]: A
- O=S(=O)(O)CCS(=O)(=O)O: A
- O=C(O)c1ccccc1: A
- NCC(=O)O: C
- CC(C)C[C@H](N)C(=O)O: C
- O=C(O)/C=C\C(=O)O: A
- O=C1NS(=O)(=O)c2ccccc21: A
- O=C(O)CC(O)(CC(=O)O)C(=O)O: A
- NC(=O)c1ccccc1 [Benzamide]: A
- O=C(O)CCCC(=O)O: A

Q: What does the record list as Cocrystal formation, Example 1 for N=C(N)NCCC[C@H](N)C(=O)O [L(+)-Arginine] ?
Result: C

Q: What does the record list as Cocrystal formation, Example 1 for C/C=C/C=C/C(=O)O ?
Result: B

Q: What does the record list as Cocrystal formation, Example 1 for O=C(O)C(=O)O ?
Result: B

* * *

Assay: Cocrystal screening by slurry method (Comparative Examples 1-1 to 1-6), powder X-ray diffraction
Format: physicochemical
Design: key: A cocrystal was completely formed.; B: A mixture of a cocrystal and the host compound or guest compound was formed.; C: A cocrystal was not formed (a mixture of the host compound and the guest compound was formed)
Conditions: host theophylline, slurry in water, room temperature 7 days
measurement-name: Cocrystal formation, Comparative Example 1-1

# count of solved cases: 4
* N=C(N)NCCC[C@H](N)C(=O)O [L(+)-Arginine] | A
* O=C(O)CCCC(=O)O | C
* NC(=O)c1cccnc1 [Nicotinamide] | C
* O=C(O)C(=O)O | C

Q: What does the record list as Cocrystal formation, Comparative Example 1-1 for NCC(=O)O ?
Result: C

Q: What does the record list as Cocrystal formation, Comparative Example 1-1 for O=C(O)c1ccccc1 ?
Result: C

Q: What does the record list as Cocrystal formation, Comparative Example 1-1 for O=C1NS(=O)(=O)c2ccccc21 ?
Result: C

Q: What does the record list as Cocrystal formation, Comparative Example 1-1 for CC(C)C[C@H](N)C(=O)O ?
Result: C

Q: What does the record list as Cocrystal formation, Comparative Example 1-1 for O=C(O)CC(O)(CC(=O)O)C(=O)O ?
Result: C

Q: What does the record list as Cocrystal formation, Comparative Example 1-1 for NC(=O)c1ccccc1 [Benzamide] ?
Result: A

Q: What does the record list as Cocrystal formation, Comparative Example 1-1 for O=C(O)/C=C\C(=O)O ?
Result: C

Q: What does the record list as Cocrystal formation, Comparative Example 1-1 for C/C=C/C=C/C(=O)O ?
Result: C

Q: What does the record list as Cocrystal formation, Comparative Example 1-1 for O=S(=O)(O)CCS(=O)(=O)O ?
Result: C

* * *

Test: Cocrystal screening by slurry method (Comparative Examples 4-1 to 4-6), powder X-ray diffraction
Format: physicochemical
Set-up: key: A cocrystal was completely formed.; B: A mixture of a cocrystal and the host compound or guest compound was formed.; C: A cocrystal was not formed (a mixture of the host compound and the guest compound was formed)
Conditions: host carbamazepine, slurry summary: A if a cocrystal was formed in any one of Comparative Examples 4-1 to 4-6
measurement-name: Cocrystal formation, Comparative Example 4*

* O=C1NS(=O)(=O)c2ccccc21 | A
* CC(C)C[C@H](N)C(=O)O | C
* NCC(=O)O | C
* O=C(O)/C=C\C(=O)O | A
* C/C=C/C=C/C(=O)O | C

Okay, next one:
Q: What does the record list as Cocrystal formation, Comparative Example 4* for O=C(O)CCCC(=O)O ?
Result: C
